Tested on: SARS-CoV-2
Test: microbe, parasite or virus in culture
Format: cell-based
Conditions: Severe acute respiratory syndrome coronavirus 2
Measurement label: pIC50
The value called pIC50 is obtained by taking minus log10 of the concentration in mol/L.

query: Entry CCC(CC)COC(=O)[C@H](C)N[P@](=O)(OC[C@H]1O[C@@](C#N)(c2ccc3c(N)ncnn23)[C@H](O)[C@@H]1O)Oc1ccccc1 [Remdesivir, reference compound] : reported pIC50 = ?
result: 5.31

====

Test system: influenza A virus (A/PR/8/34(H1N1))
Experiment: microbe, parasite or virus in culture
Format: cell-based
Details: Influenza A virus, MDCK
Measurement label: IC50

Compound	System	Measurement label	Data value
O=C(CCCCCn1c(=O)c2sccc2n(CC(=O)NCCC2=CCCCC2)c1=O)NCc1ccc(F)cc1	influenza A virus (A/PR/8/34(H1N1))	IC50	> 200 µM
CCCCc1nn2c(=O)cc(CSc3nc4ccc(NC(C)=O)cc4s3)nc2s1	influenza A virus (A/PR/8/34(H1N1))	IC50	66.2 µM
CC1(c2ccccc2)CC(C)(C)N(C(=O)CSc2nc(O)cc(CSc3ccc(Cl)cc3)n2)c2ccccc21 (stereo not shown)	influenza A virus (A/PR/8/34(H1N1))	IC50	36.8 µM

--- query ---
query: Entry Cc1ccc(-c2onc3ccc(-c4cc(C(=O)O)c5ccccc5n4)cc23)cc1 : reported IC50 = ?
result: 7.35 µM

====

Test system: influenza A virus (A/PR/8/34(H1N1))
Test: microbe, parasite or virus in culture
Format: cell-based
Conditions: Influenza A virus, MDCK, A/PR/8/34(H1N1), MDCK cells, plaque reduction; read-out: IC50
Entries and their measured pIC50 follow.
The value called pIC50 is obtained by taking minus log10 of the concentration in mol/L.

Known results for compounds:
Compound	System	pIC50
Cc1nc2ncc(-c3ccc(-c4ccccc4)cc3)cn2c1C(=O)O	influenza A virus (A/PR/8/34(H1N1))	5.97
Cc1cc2nc(C)c(C(=O)O)n2cc1-c1ccc(-c2ccccc2)cc1	influenza A virus (A/PR/8/34(H1N1))	6.07
COC(=O)OCOc1c2n(ccc1=O)N([C@@H]1c3ccccc3SCc3c1ccc(F)c3F)[C@@H]1COCCN1C2=O [Baloxavir marboxil, reference compound]	influenza A virus (A/PR/8/34(H1N1))	8.01

--- query ---
query: Entry C/C(O)=C(\C#N)C(=O)Nc1ccc(C(F)(F)F)cc1 [Compound 17, teriflunomide, reference compound] : reported pIC50 = ?
result: 4.46

====

System: influenza A virus (A/PR/8/34(H1N1))
Experiment: microbe, parasite or virus in culture
Type: cell-based
Settings: Influenza A virus, MDCK
Measurement label: pIC50
The value called pIC50 is obtained by taking minus log10 of the concentration in mol/L.

Known results for molecules:
Smiles	Measurement label	Data value
CN1C(=O)c2ccccc2Sc2cc(-c3noc(CNC(=O)Cc4ccc(Cl)cc4)n3)ccc21	pIC50	4.87
Cc1ccc(-c2onc3ccc(-c4cc(C(=O)O)c5cc(C)ccc5n4)cc23)cc1	pIC50	5.76
O=C(Cc1cccs1)Nc1ccc(N2CCN(c3ccccc3Cl)CC2)cc1C(=O)O	pIC50	4.76

--- query ---
query: Entry CC(=O)c1ccc(N2CCN(C(=O)c3cc4c(=O)n(C)c5ccccc5c4s3)CC2)cc1 : reported pIC50 = ?
result: 5.31

====

Tested on: influenza A virus (A/PR/8/34(H1N1))
Experiment: microbe, parasite or virus in culture
Type: cell-based
Conditions: A/PR/8/34(H1N1), MDCK cells, plaque reduction; read-out: IC50
Measurement label: IC50

query: Entry Cc1nc2ccc(-c3ccc(-c4ccccc4)cc3)cn2c1C(=O)O [Compound 12] : reported IC50 = ?
result: 100 µM

====

Test system: influenza A virus (A/PR/8/34(H1N1))
Assay: microbe, parasite or virus in culture
Format: cell-based
Conditions: Influenza A virus, MDCK, A/PR/8/34(H1N1), MDCK cells, plaque reduction; read-out: IC50
Measurement label: IC50

Known results for compounds:
Compound	IC50
CCOC(=O)c1c(C)nc2ncc(-c3ccc(-c4ccccc4)cc3)cn12 [Compound 16]	> 200 µM
CCOC(=O)c1c(C)nc2ccc(-c3ccc(-c4ccccc4)cc3)cn12 [Compound 14]	> 200 µM
CCOC(=O)c1c(C)nc2cc(C)c(-c3ccc(-c4ccccc4)cc3)cn12 [Compound 15]	> 200 µM

--- query ---
query: Recall the recorded IC50 for Cc1nc2ccc(-c3ccc(-c4ccccc4)cc3)cn2c1C(=O)O [Compound 12] with influenza A virus (A/PR/8/34(H1N1)) and state it.
result: > 100 µM

Measured values drawn from paper PMC12472551 for this set.
